src = patent US10245261B2

Biological target: Abl(T315I)(h) (Homo sapiens, UniProt P00519, T315I)
Experiment: KinaseProfiler kinase assay
Format: biochemical
Conditions: Abl(T315I)

- compound_structure: "C/C=C/c1cc(Nc2cc(N3CCN(C)CC3)nc(Oc3ccc4[nH]c(C)cc4c3F)n2)n[nH]1"
  system: "Abl(T315I)(h) (Homo sapiens, UniProt P00519, T315I)"
  IC50 / nM: 0.5

----------
Molecular target: Flt4(h) (Homo sapiens, UniProt P35916)
Sequence (P35916 25-1363): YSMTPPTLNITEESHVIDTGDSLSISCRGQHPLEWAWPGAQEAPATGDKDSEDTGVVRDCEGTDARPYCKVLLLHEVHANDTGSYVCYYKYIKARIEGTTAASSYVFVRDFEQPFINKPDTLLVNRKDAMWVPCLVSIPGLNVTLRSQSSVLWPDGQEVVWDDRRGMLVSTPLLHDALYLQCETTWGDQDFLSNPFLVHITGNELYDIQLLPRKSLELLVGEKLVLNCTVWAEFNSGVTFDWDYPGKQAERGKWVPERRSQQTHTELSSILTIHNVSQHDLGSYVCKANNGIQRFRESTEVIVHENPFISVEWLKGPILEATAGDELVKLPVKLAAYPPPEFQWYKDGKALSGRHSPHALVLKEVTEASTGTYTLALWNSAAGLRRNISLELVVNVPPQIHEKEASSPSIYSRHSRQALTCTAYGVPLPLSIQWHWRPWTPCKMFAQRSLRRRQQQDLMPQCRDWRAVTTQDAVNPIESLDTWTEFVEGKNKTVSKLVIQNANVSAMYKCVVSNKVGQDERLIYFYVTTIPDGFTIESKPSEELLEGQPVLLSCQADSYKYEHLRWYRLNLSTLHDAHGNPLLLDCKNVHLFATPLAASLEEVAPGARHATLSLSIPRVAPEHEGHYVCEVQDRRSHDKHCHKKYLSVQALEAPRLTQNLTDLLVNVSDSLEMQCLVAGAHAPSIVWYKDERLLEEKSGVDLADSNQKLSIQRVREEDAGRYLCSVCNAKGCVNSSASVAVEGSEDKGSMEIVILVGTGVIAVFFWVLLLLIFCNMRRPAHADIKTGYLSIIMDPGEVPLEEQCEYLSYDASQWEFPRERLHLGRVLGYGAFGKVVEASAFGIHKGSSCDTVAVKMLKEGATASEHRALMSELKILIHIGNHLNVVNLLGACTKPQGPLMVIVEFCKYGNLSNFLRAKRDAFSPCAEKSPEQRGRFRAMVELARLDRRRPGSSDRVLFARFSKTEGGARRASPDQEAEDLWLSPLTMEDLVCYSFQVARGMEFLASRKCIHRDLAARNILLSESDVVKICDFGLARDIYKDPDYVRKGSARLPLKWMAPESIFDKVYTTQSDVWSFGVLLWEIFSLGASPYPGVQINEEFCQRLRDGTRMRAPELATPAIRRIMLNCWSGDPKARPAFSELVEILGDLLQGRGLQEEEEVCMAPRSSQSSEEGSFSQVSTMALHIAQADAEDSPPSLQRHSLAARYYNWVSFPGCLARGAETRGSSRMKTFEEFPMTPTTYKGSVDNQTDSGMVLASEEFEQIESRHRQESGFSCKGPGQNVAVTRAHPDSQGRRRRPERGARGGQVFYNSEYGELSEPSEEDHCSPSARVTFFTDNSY

- compound: "C/C=C/c1cc(Nc2cc(N3CCN(C)CC3)nc(Oc3ccc4[nH]c(C)cc4c3F)n2)n[nH]1 [Compound 53]"
  units_text: "nM"
  IC50: 2
